Reported fluorescence absorption value, times that of HHMA by item:
Tested on: 293T cells
protocolDescription: Fluorescent detection of Fluc-mRNA (cell transfection efficiency of LNP formulations)
Type: cell-based
measurementConditions: RLU of named substance / RLU of HHMA
valueType: fluorescence absorption value, times that of HHMA (times)

[[record]]
compound = "CCCCCCC(CCCCCC)CCOC(=O)CCCCCN(CCO)CCCCCC(=O)OCCSCCCC"
valueobserved = 0.0010

[[record]]
compound = "CCCCCCCCCCOC(=O)CCCN(CCCCCC(=O)OCCC(CCCCCC)CCCCCC)C1CCCC1O (stereo not drawn)"
valueobserved = 0.69

[[record]]
compound = "CCCCCCCCCCOC(=O)CCCN(CCCCCC(=O)OCC(CCCCCCCC)CCCCCCCC)CCOC(=O)CCCN(C)C"
valueobserved = 0.11


The measurements presented in this section are drawn from patent US20260008746A1.
